Test system: A. baumannii CI Ptyela 100734512:2, PmxR
Experiment: microbe, parasite or virus in culture
Type: cell-based, Acinetobacter baumannii
Settings: carbapenem & polymyxin resistant clinical isolate; MHB, 5 × 10^5 CFU/mL, 18 h at 37 °C
Protocol: Bacteria were either obtained from American Type Culture Collection (ATCC; Manassas, VA, USA) or independent academic clinical isolate collections, as listed in Table S2. Bacteria were cultured in nutrient broth (NB; Bacto Laboratories, catalog no. 234000) or Muller Hinton broth (MHB; Bacto Laboratories, catalog no. 211443) at 37 °C overnight with shaking (∼180 rpm). A sample of each culture was then diluted 50-fold in fresh MHB and incubated at 37 °C for 1.5–3 h with shaking (∼180 rpm). […]
Bridge positions count the residues as written; N and C are the ends. Square brackets hold non-standard residues; d marks the D form. Peptide text beside a SMILES is read from it. * marks the point of attachment. dDab = NCC[C@@H](N)C(=O)O; Octanoyl = CCCCCCCC(=O)*; Dab = NCC[C@H](N)C(=O)O
What MIC A. baumannii CI Ptyela 100734512:2, PmxR was measured for each of the following?

Illustrative cases are given below, each with its answer.
molecule	result
CCCCCCCC(=O)N[C@H](C(=O)NCC(=O)N[C@H]1CCNC(=O)[C@H]([C@@H](C)O)NC(=O)[C@H](CCN)NC(=O)[C@H](CCN)NC(=O)[C@H](CC(C)C)NC(=O)[C@@H](Cc2ccccc2)NC(=O)[C@H](CCN)NC1=O)[C@@H](C)O [Compound 39] (Octanoyl-TG[Dab][Dab][dF]L[Dab][Dab]T; lactam 3-C)	>32 µg/mL
CCCCCCCC(=O)N[C@H](CCN)C(=O)N[C@H](C(=O)NCC(=O)N[C@H]1CCNC(=O)[C@H]([C@@H](C)O)NC(=O)[C@H](CCN)NC(=O)[C@H](CCN)NC(=O)[C@H](CC(C)C)NC(=O)[C@@H](Cc2ccccc2)NC(=O)[C@H](CCN)NC1=O)[C@@H](C)O [Compound 40] (Octanoyl-[dDab]TG[Dab][Dab][dF]L[Dab][Dab]T; lactam 4-C)	>32 µg/mL
CCCCCCCC(=O)N[C@@H](CCN)C(=O)N[C@H](C(=O)N[C@@H](CCN)C(=O)N[C@H]1CCNC(=O)[C@H]([C@@H](C)O)NC(=O)[C@H](CCN)NC(=O)[C@H](CCN)NC(=O)[C@H](CC(C)C)NC(=O)[C@@H](Cc2ccccc2)NC(=O)[C@H](CCN)NC1=O)[C@@H](C)O [Compound 11, polymyxin B3] (Octanoyl-[Dab]T[Dab][Dab][Dab][dF]L[Dab][Dab]T; lactam 4-C)	>64 µg/mL

Quick check: MIC A. baumannii CI Ptyela 100734512:2, PmxR of CCCCCCCC(=O)N[C@@H](CCN)C(=O)N[C@H](C(=O)N[C@H](CCN)C(=O)N[C@H]1CCNC(=O)[C@H]([C@@H](C)O)NC(=O)[C@H](CCN)NC(=O)[C@H](CCN)NC(=O)[C@H](CC(C)C)NC(=O)[C@@H](Cc2ccccc2)NC(=O)[C@H](CCN)NC1=O)[C@@H](C)O [Compound 36] (Octanoyl-[Dab]T[dDab][Dab][Dab][dF]L[Dab][Dab]T; lactam 4-C) ? >32 µg/mL
